target: Hypoxia-inducible factor 1-alpha (Homo sapiens) (UniProt Q16665); assay: activators of HIF1alpha nuclear accumulation, confirmation, imaging, fluorescence, U2OS GFP-HIF1alpha (AID 434951); details: U2OS GFP-HIF1alpha nuclear intensity, high-content imaging
Sequence (Q16665 whole entry, looked up): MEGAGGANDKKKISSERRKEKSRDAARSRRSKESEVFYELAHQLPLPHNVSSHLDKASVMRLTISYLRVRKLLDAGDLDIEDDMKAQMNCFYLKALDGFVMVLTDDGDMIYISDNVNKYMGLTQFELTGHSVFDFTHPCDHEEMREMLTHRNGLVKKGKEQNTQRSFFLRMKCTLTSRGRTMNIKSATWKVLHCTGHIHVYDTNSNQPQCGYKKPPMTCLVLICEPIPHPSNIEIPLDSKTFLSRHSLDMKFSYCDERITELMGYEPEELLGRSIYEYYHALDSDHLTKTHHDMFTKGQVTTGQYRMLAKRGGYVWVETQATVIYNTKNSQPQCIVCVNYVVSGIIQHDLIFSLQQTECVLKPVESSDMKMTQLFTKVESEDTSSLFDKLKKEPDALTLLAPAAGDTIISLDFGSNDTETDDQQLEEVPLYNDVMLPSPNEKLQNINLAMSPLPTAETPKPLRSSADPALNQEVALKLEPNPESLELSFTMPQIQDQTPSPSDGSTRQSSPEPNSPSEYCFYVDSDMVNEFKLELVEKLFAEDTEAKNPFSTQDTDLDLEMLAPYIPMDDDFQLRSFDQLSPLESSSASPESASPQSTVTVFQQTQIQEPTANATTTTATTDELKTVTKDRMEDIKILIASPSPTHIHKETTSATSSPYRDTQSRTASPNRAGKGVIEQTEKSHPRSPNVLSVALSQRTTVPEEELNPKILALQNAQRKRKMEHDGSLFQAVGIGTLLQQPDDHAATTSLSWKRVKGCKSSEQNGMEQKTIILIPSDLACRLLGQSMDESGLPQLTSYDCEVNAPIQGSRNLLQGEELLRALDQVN
Calls of active or inactive are those of the source.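 The calls were made as follows: active = a fitted half-maximal concentration EC50 for the rise in nuclear signal no higher than ten times the top dose tested; inconclusive = flat fit with activity between 30% and 70%, or unusable fit; inactive = EC50 beyond ten times the top dose.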
Pick one: active, inactive

Examples with answers:
>>> class_assignment("COc1ccc(C2CC(c3cccs3)=NN2C(=O)CSc2nc(=O)n3cc(C)ccc3n2)cc1 (stereo unspecified)")
"inactive"
>>> class_assignment("CCCCC(=O)NC(c1ccccc1)c1ccc2cccnc2c1O (stereo unspecified)")
"active"

Okay, now this compound:
Ask: Given Oc1ccc(/C=N/NC(=S)NC2CC3CCC2C3)cc1 (stereo unspecified) , state the outcome it received in this test.
Reply: inactive
